- TARGET OF ASSAY: His6-AspH315–758 (human aspartate/asparagine-β-hydroxylase, AspH) (Homo sapiens, UniProt Q12797)
- Construct: N-Terminally His6-tagged human AspH315–758 (His6-AspH315–758) was produced in E. coli BL21 (DE3) cells; made in house; host or cells: E. coli BL21 (DE3), pET-28a(+) vector
- ASSAY: SPE-MS AspH inhibition assay (LOPAC screen at fixed 20 μM and IC50 dose-response), hydroxylation of cyclic peptide hFX-CP101–119
- Type: biochemical
Structures can show the parent of a compound that is named as a salt.
Reported values of Plate 1 (% inhibition) for individual entries
Write down the numeric answer in % and omit the unit.

>>> print(df.to_string())
                                   compound   experimental_endpoint  result_value
0  Cl.c1ccc2sc(C3(N4CCCCC4)CCCCC3)cc2c1 [BTCP hydrochloride]  Plate 1 (% inhibition)        -15.64
1                  N=C(N)NCCC[C@H](N)C(=O)O  Plate 1 (% inhibition)         -6.68
2  Cc1ncsc1CCCl.Cl [Chlormethiazole hydrochloride]  Plate 1 (% inhibition)          5.75

Prompt line: Tell me the measured Plate 1 (% inhibition) of C#CCOC(=O)C1=CCCN(C)C1 [Arecaidine propargyl ester hydrobromide] , please.
Response line: -5.59

Prompt line: Tell me the measured Plate 1 (% inhibition) of C=CC[N+](C)(C)c1ccc(CCC(=O)CCc2ccc([N+](C)(C)CC=C)cc2)cc1.[Br-].[Br-] , please.
Response line: -7.47

Prompt line: Tell me the measured Plate 1 (% inhibition) of C[C@H](CS)C(=O)N1CCC[C@H]1C(=O)O , please.
Response line: 1.58

Prompt line: Tell me the measured Plate 1 (% inhibition) of O=C(O)C1CCCNC1 (racemic) [(±)-Nipecotic acid] , please.
Response line: 16.29

Prompt line: Tell me the measured Plate 1 (% inhibition) of CN(C)CCOC(=O)COc1ccc(Cl)cc1 [Centrophenoxine hydrochloride] , please.
Response line: -2.35

Prompt line: Tell me the measured Plate 1 (% inhibition) of COc1ccc(C(=O)N2CCCC2=O)cc1 , please.
Response line: 36.86

Prompt line: Tell me the measured Plate 1 (% inhibition) of CC1(C(=O)O)C2CCC(O2)C1(C)C(=O)O (centres unmarked) , please.
Response line: 29.65

* * *

Reported values of Plate 5 (% conversion) for individual entries
- TARGET OF ASSAY: His6-AspH315–758 (human aspartate/asparagine-β-hydroxylase, AspH) (Homo sapiens)
- Construct: N-Terminally His6-tagged human AspH315–758 (His6-AspH315–758) was produced in E. coli BL21 (DE3) cells; made in house; host or cells: E. coli BL21 (DE3), pET-28a(+) vector
- ASSAY: SPE-MS AspH inhibition assay (LOPAC screen at fixed 20 μM and IC50 dose-response), hydroxylation of cyclic peptide hFX-CP101–119
- Assay type: biochemical
Write down the numeric answer in % and omit the unit.

The following compounds have reported results that may help.
COMPOUND	Plate 5 (% conversion) / %
CC(C)(NS(=O)(=O)c1ccc(Oc2ccc(F)cc2)cc1)C(=O)NO	38.13
CN(CCC(Oc1ccc(C(=O)c2nccs2)cc1)c1ccc(Cl)cc1)CC(=O)O (stereo not shown)	32.57
COc1ccccc1CN[C@H]1CCCN[C@H]1c1ccccc1	33.08

Prompt line: API: value(readout= Plate 5 (% conversion), system= His6-AspH315–758 (human aspartate/asparagine-β-hydroxylase, AspH) (Homo sapiens), query= CC1(N2CCC(n3c([C@@H]4CCCNC4)nc4ccccc43)CC2)CCCCCCC1 )
Response line: 39.16

Prompt line: API: value(readout= Plate 5 (% conversion), system= His6-AspH315–758 (human aspartate/asparagine-β-hydroxylase, AspH) (Homo sapiens), query= CC(C)(C)OC(=O)NC1[C@H]2CNC[C@@H]12 (stereo partly shown) )
Response line: 36.34

Prompt line: API: value(readout= Plate 5 (% conversion), system= His6-AspH315–758 (human aspartate/asparagine-β-hydroxylase, AspH) (Homo sapiens), query= CCCc1nn(C)c2c(=O)[nH]c(-c3cc(S(=O)(=O)N4CCN(C)CC4)ccc3OCC)nc12 [sildenafil, reference compound] )
Response line: 6.67

* * *

- TARGET OF ASSAY: His6-AspH315–758 (human aspartate/asparagine-β-hydroxylase, AspH) (Homo sapiens, UniProt Q12797)
- Construct: N-Terminally His6-tagged human AspH315–758 (His6-AspH315–758) was produced in E. coli BL21 (DE3) cells; made in house; host or cells: E. coli BL21 (DE3), pET-28a(+) vector
- Sequence (Q12797 315-758): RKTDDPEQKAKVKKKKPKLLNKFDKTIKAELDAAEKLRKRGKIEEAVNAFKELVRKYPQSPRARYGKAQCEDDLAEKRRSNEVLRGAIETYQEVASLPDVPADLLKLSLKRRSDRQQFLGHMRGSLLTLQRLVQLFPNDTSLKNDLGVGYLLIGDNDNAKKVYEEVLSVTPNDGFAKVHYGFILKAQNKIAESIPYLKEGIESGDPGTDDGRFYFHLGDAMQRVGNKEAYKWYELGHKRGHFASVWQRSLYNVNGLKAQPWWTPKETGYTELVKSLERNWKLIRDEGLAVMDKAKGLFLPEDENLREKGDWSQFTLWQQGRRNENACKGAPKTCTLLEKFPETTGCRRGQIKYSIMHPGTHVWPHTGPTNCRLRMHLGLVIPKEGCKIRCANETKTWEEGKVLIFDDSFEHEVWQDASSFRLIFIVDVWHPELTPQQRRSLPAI
- ASSAY: SPE-MS AspH inhibition assay (LOPAC screen at fixed 20 μM and IC50 dose-response), hydroxylation of cyclic peptide hFX-CP101–119
- Type: biochemical
Reported values of Plate 1 (% conversion) for individual entries
Remember to put the unit after the number in your answer.

                      compound  result_value
0  Nc1ccncc1 [4-Aminopyridine]        34.98%

Prompt line: Tell me the measured Plate 1 (% conversion) of CN1CCN(C2=Nc3cc(Cl)ccc3Nc3ccccc32)CC1 [Clozapine] , please.
Response line: 39.79%

* * *

- TARGET OF ASSAY: His6-AspH315–758 (human aspartate/asparagine-β-hydroxylase, AspH) (Homo sapiens, UniProt Q12797)
- Construct: N-Terminally His6-tagged human AspH315–758 (His6-AspH315–758) was produced in E. coli BL21 (DE3) cells; made in house; host or cells: E. coli BL21 (DE3), pET-28a(+) vector
- ASSAY: SPE-MS AspH inhibition assay (LOPAC screen at fixed 20 μM and IC50 dose-response), hydroxylation of cyclic peptide hFX-CP101–119
- Assay type: biochemical
- CONDITIONS USED: LOPAC compound at fixed 20 uM; plate 1, normalised to DMSO and 2,4-PDCA controls
Where a name gives a salt, the structure may show the parent alone.
EXPERIMENTAL ENDPOINT: Plate 1 (% inhibition) (%)
Write down the numeric answer in % and omit the unit.

The following compounds have reported results that may help.
                                   compound   experimental_endpoint  result_value
0  O=C1CC2(CCCC2)CC(=O)N1CCCCN1CCN(c2ncccn2)CC1 [Buspirone hydrochloride]  Plate 1 (% inhibition)        -13.49
1  Nc1ccn([C@@H]2O[C@H](CO)[C@@H](O)C2(F)F)c(=O)n1 [Gemcitabine hydrochloride]  Plate 1 (% inhibition)         11.04
2  COc1ccccc1N1CCN(CCN2C(=O)CC3(CCCC3)CC2=O)CC1.Cl.Cl [BMY 7378 dihydrochloride]  Plate 1 (% inhibition)        -11.73

Read the next record carefully.
Prompt line: Tell me the measured Plate 1 (% inhibition) of O=C1NC(=O)[C@@]2(CCOc3ccc(F)cc32)N1 , please.
Response line: -13.94

* * *

Reported values of Plate 1 (% inhibition) for individual entries
- TARGET OF ASSAY: His6-AspH315–758 (human aspartate/asparagine-β-hydroxylase, AspH) (Homo sapiens)
- Construct: N-Terminally His6-tagged human AspH315–758 (His6-AspH315–758) was produced in E. coli BL21 (DE3) cells; made in house; host or cells: E. coli BL21 (DE3), pET-28a(+) vector
- ASSAY: SPE-MS AspH inhibition assay (LOPAC screen at fixed 20 μM and IC50 dose-response), hydroxylation of cyclic peptide hFX-CP101–119
- Assay type: biochemical
- CONDITIONS USED: LOPAC compound at fixed 20 uM; plate 1, normalised to DMSO and 2,4-PDCA controls
Counter-ions that a name gives are not always drawn.
Write down the numeric answer in % and omit the unit.

The following molecules have reported results that may help.
>>> print(df.to_string())
                                   molecule  result_value
0  C[C@]12CCC(=O)C=C1CC[C@@H]1[C@@H]2C(=O)C[C@@]2(C)[C@H]1CC[C@]2(O)C(=O)CO         -8.46
1  CC(=O)OC(C)C[N+](C)(C)C.[Cl-] (stereo not drawn) [Acetyl-beta-methylcholine chloride]        -15.64
2  NC(Cc1ccc(Cl)cc1)C(=O)O (racemic) [(±)-p-Chlorophenylalanine]         -1.40
3  O=C1NC(=O)/C(=C/c2ccc(-c3ccc(F)cc3O)o2)S1         -9.30
4  CSc1nc(N)c2ncn([C@@H]3O[C@H](COP(=O)([O-])OP(=O)([O-])[O-])[C@@H](O)[C@H]3O)c2n1.O.[Na+].[Na+].[Na+]         16.28

Prompt line: API: value(readout= Plate 1 (% inhibition), system= His6-AspH315–758 (human aspartate/asparagine-β-hydroxylase, AspH) (Homo sapiens), query= CO[C@H]1O[C@@H]2O[C@@]3(C)CC[C@H]4[C@H](C)CC[C@@H]([C@H]1C)[C@@]24OO3 )
Response line: -9.16

Prompt line: API: value(readout= Plate 1 (% inhibition), system= His6-AspH315–758 (human aspartate/asparagine-β-hydroxylase, AspH) (Homo sapiens), query= C[N+](C)(C)CC=O [Betaine aldehyde chloride] )
Response line: -3.10

Prompt line: API: value(readout= Plate 1 (% inhibition), system= His6-AspH315–758 (human aspartate/asparagine-β-hydroxylase, AspH) (Homo sapiens), query= C#CC(N)CCC(=O)O (stereo not shown) )
Response line: -4.92

Prompt line: API: value(readout= Plate 1 (% inhibition), system= His6-AspH315–758 (human aspartate/asparagine-β-hydroxylase, AspH) (Homo sapiens), query= CC(=O)NBr [N-Bromoacetamide] )
Response line: 71.66

Prompt line: API: value(readout= Plate 1 (% inhibition), system= His6-AspH315–758 (human aspartate/asparagine-β-hydroxylase, AspH) (Homo sapiens), query= CN(C)c1nc(N)c(C(=O)NC(=N)N)nc1Cl [5-(N,N-Dimethyl)amiloride hydrochloride] )
Response line: -6.54

Prompt line: API: value(readout= Plate 1 (% inhibition), system= His6-AspH315–758 (human aspartate/asparagine-β-hydroxylase, AspH) (Homo sapiens), query= NC/C=C\C(=O)O [cis-4-Aminocrotonic acid] )
Response line: -8.37

Prompt line: API: value(readout= Plate 1 (% inhibition), system= His6-AspH315–758 (human aspartate/asparagine-β-hydroxylase, AspH) (Homo sapiens), query= CCCc1nn(C)c2c(=O)[nH]c(-c3cc(S(=O)(=O)N4CCN(C)CC4)ccc3OCC)nc12.O=C(O)CC(O)(CC(=O)O)C(=O)O [Sildenafil citrate salt] )
Response line: 83.33

Prompt line: API: value(readout= Plate 1 (% inhibition), system= His6-AspH315–758 (human aspartate/asparagine-β-hydroxylase, AspH) (Homo sapiens), query= C[C@H]1C[C@H]2[C@@H]3CCC4=CC(=O)C=C[C@]4(C)[C@@]3(Cl)[C@@H](O)C[C@]2(C)[C@@]1(O)C(=O)CO )
Response line: -10.42
